Source listed as ChEMBL document CHEMBL1146369.

Recorded IC50 values for a group of compounds are listed next.
- Test system: Vero
- Run description: Cytotoxicity against Vero cells
- Assay type: cell-based
- Measurement context: Chlorocebus sabaeus
Entry rule: numbers only, all in µM.

Below, each entry is followed by its recorded IC50 result.
Record smiles: O=C1c2nccnc2C(=O)N1c1ccccc1
System name: Vero
Measure: IC50
Quantitative result: 71

Record smiles: O=C1c2nccnc2C(=O)N1C12CC3CC(CC(C3)C1)C2
System name: Vero
Measure: IC50
Quantitative result: 18

Record smiles: Cc1cccc(C)c1N1C(=O)[C@@H]2C3C=CC(CC3)[C@@H]2C1=O
System name: Vero
Measure: IC50
Quantitative result: 13

Record smiles: O=C1[C@@H]2C3C=CC(CC3)[C@@H]2C(=O)N1Cc1ccccc1
System name: Vero
Measure: IC50
Quantitative result: 74

Record smiles: O=C1c2cccnc2C(=O)N1Cc1ccc(Cl)cc1
System name: Vero
Measure: IC50
Quantitative result: 95

*Q* Look up IC50: O=C1c2nccnc2C(=O)N1Cc1ccc(Cl)cc1
*A* 88

*Q* Look up IC50: CC(C)(C)N1C(=O)[C@@H]2C3C=CC(CC3)[C@@H]2C1=O
*A* 27

*Q* Look up IC50: O=c1[nH]cc(F)c(=O)[nH]1
*A* 0.2
